Tested on: SNB-19
Assay: NCI tumour cell line growth inhibition, 48 h
The source made the active and inactive calls. No stated cut-off is given here; in the data, active = GI50 up to about 1.1 µM and inactive = higher.
observable: GI50

INSERT INTO measurements (molecule, tgt, observable, test_result) VALUES
  ('COc1cc(C)cc2c1c(=O)c1ccccc1n2C', 'SNB-19', 'GI50', '54.8 µM (inactive)'),
  ('CCOc1cc(NC(C)=O)ccc1C(=O)NN1C(=O)C(Cl)C1c1ccccc1 (stereo unspecified)', 'SNB-19', 'GI50', '15.1 µM (inactive)'),
  ('C/C(=N\N=C(N)N)c1c(C(=O)OCCCCCCOC(=O)c2nc3sccn3c2/C(C)=N/N=C(N)N)nc2sccn12', 'SNB-19', 'GI50', '63.8 µM (inactive)'),
  ('COc1ccc(/C=C/C(=O)Oc2ccc(/C=C3\CCCCC3=O)cc2)cc1', 'SNB-19', 'GI50', '> 66.1 µM (inactive)'),
  ('COc1ccc(/C=N/n2c(C)n[nH]c2=O)cc1', 'SNB-19', 'GI50', '> 100 µM (inactive)');

Tested on SNB-19, the item COC(=O)C(COC(=O)/C=C/c1ccc(OC(C)=O)c(OC(C)=O)c1)NC(=O)/C=C/c1ccc(OC(C)=O)c(OC(C)=O)c1 (stereo unspecified) showed GI50 equal to 22.9 µM (inactive)

====

Test system: SF-295
Assay: NCI tumour cell line growth inhibition, 48 h
Calls of active or inactive are those of the source. No stated cut-off is given here; in the data, active = GI50 up to about 1.1 µM and inactive = higher.
observable: GI50

Example entries begin here.
INSERT INTO measurements (compound, test_result) VALUES
  ('O=c1[nH]c2ccc(CC(=S)N3CCCCC3)cc2s1', '> 100 µM (inactive)'),
  ('O=c1ss/c(=N\c2ccccc2)n1-c1ccccc1', '> 100 µM (inactive)'),
  ('N#CC(C#N)=C1c2ccccc2C(=NN)c2ccccc21', '4.83 µM (inactive)'),
  ('CN(C)CCCNC(=O)N/N=C/c1ccc([N+](=O)[O-])cc1', '78.2 µM (inactive)'),
  ('CC1(C)[C@@H](Cn2cc(I)c(=O)[nH]c2=O)CC[C@@]1(C)CO', '> 100 µM (inactive)'),
  ('CCCN(CCCC(NC(C)=O)C(=O)NCc1ccccc1)C(=O)NCCCl (configuration not stated)', '> 100 µM (inactive)');

Tested on SF-295, the item C[N+]1(CC[N+]2(C)CCCC2c2cccnc2)CCCC1c1cccnc1 (configuration not stated) showed GI50 equal to > 100 µM (inactive)

====

System: RXF 393
Assay: NCI tumour cell line growth inhibition, 48 h
The source made the active and inactive calls. Rule as the data show it: active = GI50 up to about 1.1 µM and inactive = higher.
observable: GI50

Example entries begin here.
INSERT INTO measurements (compound, tgt, test_result) VALUES
  ('CC(C)N(C(C)C)P(OCCC#N)OC1CC(n2cnc3c(=O)[nH]cnc32)OC1COC(=O)NCCCCCCNC(=O)OC(C)(C)c1ccc(-c2ccccc2)cc1 (stereo not drawn)', 'RXF 393', '27.7 µM (inactive)'),
  ('CC(=O)OC1COC(N2C(=O)/C(=N\NC(N)=S)c3cc(Br)ccc32)C(OC(C)=O)C1OC(C)=O (stereo not drawn)', 'RXF 393', '63.5 µM (inactive)'),
  ('NC(CSC1c2ccccc2-c2ccccc21)C(=O)O (stereo not drawn)', 'RXF 393', '> 100 µM (inactive)'),
  ('CCOC(=O)Oc1cc2c(c(OC)c1OC)-c1ccc(SC)c(=O)cc1C(NC(=O)C(F)(F)F)CC2 (stereo not drawn)', 'RXF 393', '< 0.001 µM (active)');

GET /value?item= COc1ccc2oc(-c3ccc(OC)c(OC)c3OC)cc(=O)c2c1 &field=GI50 returns 22.4 µM (inactive)

GET /value?item= [N-]=[N+]=NC1=C(C(=O)c2ccccc2)C(=O)c2cccc3cccc1c23 &field=GI50 returns 22.4 µM (inactive)

GET /value?item= CC1OC(OC2C(OC3CCC4(C)C(CCC5(C)C4CC=C4C6CC(C)(C)CCC6(C(=O)O)CCC45C)C3(C)CO)OCC(O)C2O)C(O)C(O)C1O (stereo not drawn) &field=GI50 returns 2.72 µM (inactive)

GET /value?item= OC1(c2ccc3ccccc3c2)c2ccc3ccccc3c2C2=NCCN21 (stereo not drawn) &field=GI50 returns 29.4 µM (inactive)

GET /value?item= CSc1ccc2c(cc1=O)C(NC(=O)c1ccccc1)CCc1cc(O)c(O)c(O)c1-2 (stereo not drawn) &field=GI50 returns 24.5 µM (inactive)

GET /value?item= NNc1nc2ccccc2c(=O)n1NC(=O)C(=O)Nc1cccc(C(F)(F)F)c1 &field=GI50 returns > 100 µM (inactive)

GET /value?item= COc1ccccc1/C=C(\NC(=O)c1ccccc1)c1nc2ccc(Cl)cc2[nH]1 &field=GI50 returns 22.4 µM (inactive)

GET /value?item= C=C1CC2(CCOc3ccc(Cl)cc32)OC1=O (stereo not drawn) &field=GI50 returns 2.23 µM (inactive)

GET /value?item= CCc1cc2c(c3c1CCCC3=O)CC1(C2)Cc2cc(CC)c3c(c2C1)C(=O)CCC3 &field=GI50 returns > 100 µM (inactive)

GET /value?item= O=c1c2cccnc2[nH]c2ccc3[nH]ncc3c12 &field=GI50 returns > 10 µM (inactive)
